B1: LINE1-mini (parent)
chain: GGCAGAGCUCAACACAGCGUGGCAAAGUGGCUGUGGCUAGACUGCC

Variants of: B1
Experiment: self-cleavage, relative activity (ratio to wild type); higher = more cleavage; in vitro, sequencing; the parent is a self-cleaving ribozyme
So basically: self-cleavage at 0.08 or higher? That is Y. Lower than 0.08? That is N.

Data request: Has A14G G27C a recorded self-cleavage greater than or equal to 0.08?
Data returned: Y

Data request: Has G30A A41G a recorded self-cleavage greater than or equal to 0.08?
Data returned: Y

Data request: Has A25C C45U a recorded self-cleavage greater than or equal to 0.08?
Data returned: Y

Data request: Has C3A G40A a recorded self-cleavage greater than or equal to 0.08?
Data returned: Y

Data request: Has C13G C15G a recorded self-cleavage greater than or equal to 0.08?
Data returned: Y

Data request: Has G7C C23A a recorded self-cleavage greater than or equal to 0.08?
Data returned: Y

Data request: Has C23U G33U a recorded self-cleavage greater than or equal to 0.08?
Data returned: Y

Data request: Has G17C C23U a recorded self-cleavage greater than or equal to 0.08?
Data returned: Y

Data request: Has A4G C37U a recorded self-cleavage greater than or equal to 0.08?
Data returned: Y

Data request: Has G19U C23U a recorded self-cleavage greater than or equal to 0.08?
Data returned: Y

Data request: Has A11C A16G a recorded self-cleavage greater than or equal to 0.08?
Data returned: N

Data request: Has A6G A11G a recorded self-cleavage greater than or equal to 0.08?
Data returned: N

Data request: Has G21A C45A a recorded self-cleavage greater than or equal to 0.08?
Data returned: Y

Data request: Has G19U U32A a recorded self-cleavage greater than or equal to 0.08?
Data returned: Y

Data request: Has G1U G19C a recorded self-cleavage greater than or equal to 0.08?
Data returned: Y

Data request: Has U20C G40A a recorded self-cleavage greater than or equal to 0.08?
Data returned: Y

Data request: Has G19C G29U a recorded self-cleavage greater than or equal to 0.08?
Data returned: Y

Data request: Has G22U G35A a recorded self-cleavage greater than or equal to 0.08?
Data returned: Y

Data request: Has U28G U38G a recorded self-cleavage greater than or equal to 0.08?
Data returned: N

Data request: Has A12C A25C a recorded self-cleavage greater than or equal to 0.08?
Data returned: N

Data request: Has U20C G27A a recorded self-cleavage greater than or equal to 0.08?
Data returned: Y

Data request: Has C15G C18A a recorded self-cleavage greater than or equal to 0.08?
Data returned: Y

Data request: Has G27A G40A a recorded self-cleavage greater than or equal to 0.08?
Data returned: Y

Data request: Has A12G C45G a recorded self-cleavage greater than or equal to 0.08?
Data returned: N

Data request: Has C10U C37A a recorded self-cleavage greater than or equal to 0.08?
Data returned: N

Data request: Has C10A U32A a recorded self-cleavage greater than or equal to 0.08?
Data returned: N

Data request: Has G2C G33A a recorded self-cleavage greater than or equal to 0.08?
Data returned: N

Data request: Has G7A A16C a recorded self-cleavage greater than or equal to 0.08?
Data returned: Y

Data request: Has G29U U32C a recorded self-cleavage greater than or equal to 0.08?
Data returned: Y

Data request: Has G5U A12U a recorded self-cleavage greater than or equal to 0.08?
Data returned: N

Data request: Has C13G G22C a recorded self-cleavage greater than or equal to 0.08?
Data returned: N

Data request: Has C15U G30A a recorded self-cleavage greater than or equal to 0.08?
Data returned: Y

Data request: Has G29C U38C a recorded self-cleavage greater than or equal to 0.08?
Data returned: Y

Data request: Has U20G A25G a recorded self-cleavage greater than or equal to 0.08?
Data returned: Y

Data request: Has G2C C15G a recorded self-cleavage greater than or equal to 0.08?
Data returned: N

Data request: Has A16G G40C a recorded self-cleavage greater than or equal to 0.08?
Data returned: N

Data request: Has A14C U43A a recorded self-cleavage greater than or equal to 0.08?
Data returned: Y

Data request: Has A12G U38A a recorded self-cleavage greater than or equal to 0.08?
Data returned: N

Data request: Has G30C A41C a recorded self-cleavage greater than or equal to 0.08?
Data returned: N

Data request: Has C8G G29A a recorded self-cleavage greater than or equal to 0.08?
Data returned: N

Data request: Has A14U A25G a recorded self-cleavage greater than or equal to 0.08?
Data returned: Y

Data request: Has C10U G21A a recorded self-cleavage greater than or equal to 0.08?
Data returned: Y
